# Tested on: Escherichia coli TOP10;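 note: peptides expressed intracellularly from a pBAD plasmid library in pooled LB shake-flask culture, induced with 0.3% L-arabinose, DNA abundance read by NGS, three biological replicates, DESeq2 with apeglm shrinkage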
# PROTOCOL NOTES: shrunken log2 fold change of peptide-encoding DNA abundance (4.5 h post-induction vs induction); higher = less antimicrobial activity (less host growth inhibition)
# EXPERIMENTAL CONDITIONS: time post-induction: 4.5 h; library: site-saturation at positions 5, 18, 19, 20
Measured shrunken log2 fold change determines class: low class: < -0.1; middle class: ≥ -0.1 and < -0.002; high class: ≥ -0.002

{"SEQ": "RRIRCRPPRLPRPRPRPLNGPRP", "TARGET SYSTEM": "Escherichia coli TOP10", "DISCRETE LABEL": "low class"}
{"SEQ": "RRIRKRPPRLPRPRPRPPNHPRP", "TARGET SYSTEM": "Escherichia coli TOP10", "DISCRETE LABEL": "high class"}
{"SEQ": "RRIRRRPPRLPRPRPRPTKEPRP", "TARGET SYSTEM": "Escherichia coli TOP10", "DISCRETE LABEL": "middle class"}
{"SEQ": "RRIRWRPPRLPRPRPRPQFIPRP", "TARGET SYSTEM": "Escherichia coli TOP10", "DISCRETE LABEL": "low class"}
{"SEQ": "RRIRDRPPRLPRPRPRPQIVPRP", "TARGET SYSTEM": "Escherichia coli TOP10", "DISCRETE LABEL": "middle class"}
{"SEQ": "RRIRSRPPRLPRPRPRPWRYPRP", "TARGET SYSTEM": "Escherichia coli TOP10", "DISCRETE LABEL": "low class"}
{"SEQ": "RRIRTRPPRLPRPRPRPISMPRP", "TARGET SYSTEM": "Escherichia coli TOP10", "DISCRETE LABEL": "low class"}
{"SEQ": "RRIRMRPPRLPRPRPRPPPRPRP", "TARGET SYSTEM": "Escherichia coli TOP10", "DISCRETE LABEL": "high class"}
{"SEQ": "RRIRPRPPRLPRPRPRPPVYPRP", "TARGET SYSTEM": "Escherichia coli TOP10", "DISCRETE LABEL": "high class"}
{"SEQ": "RRIRIRPPRLPRPRPRPEMVPRP", "TARGET SYSTEM": "Escherichia coli TOP10", "DISCRETE LABEL": "low class"}

Class label required: "RRIRIRPPRLPRPRPRPTTRPRP" middle class

Class label required: "RRIRSRPPRLPRPRPRPRDYPRP" low class

Class label required: "RRIRFRPPRLPRPRPRPQLVPRP" low class

Class label required: "RRIRCRPPRLPRPRPRPRGWPRP" high class

Class label required: "RRIRARPPRLPRPRPRPCNLPRP" low class

Class label required: "RRIRLRPPRLPRPRPRPPKYPRP" low class

Class label required: "RRIRMRPPRLPRPRPRPMNFPRP" high class
